protease stability score by entry:
assay: protease stability score; higher = more stable; yeast display proteolysis, trypsin and chymotrypsin;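 also: relative to predicted unfolded state with 0 unfolded-like and 1 meaning tenfold more protease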
Reply with just the number.

// below: answered sequences
*Q* protease stability score for SEEEEIARRFISVWLHAFHTGDEKRLEEMIDPHVRVDYNGVEIIGRENWIEFMLTIMRNLGFNHIRVELDHLDFQGDKMRLETTLKRKVNGREERIDTRIHVKKIDGQWIFTHELYK ?
*A* 0.795

*Q* Another sequence to look at: DEDEHHIRTALEYLRHATETGDEELMSEMADPDVRVHVNGVELHGMESYEKWLHDVLREIRIRHVHLEDSKVIGDFVRLDLRVHTEVNGRHFRHQTILISFKYNGQWRIKSVIWR
*A* 1.37

*Q* Try TELDKHLEDFAREFLHAFLTGDEDELRRLLDPNVKFEHDFDGVRFENHGMSALKEFWERVDVIDRFEIHEVRTQGDFIELVFHIDGWVNGRHKRTDSRILLVVINGKIKTIHVKIK next.
*A* 2.15

*Q* Input THDEEVIEIMMDHLREQIHTGDFTSLLEQLDPHARSDVDGREFHGREIVAHVWFHLRVKHVRIDHVDIVNGKIRVDSWIQGRINGRETEYEVILRAHKVDGRWRVHSYEIR
*A* 1.72

*Q* Again, but for TEEEKSLKEVLERYIKAIRTGDWEILRHLADPRTRMDINGRDIHGMEEITNELVEQIRRFDHIDFKFHHIEVYGDKADVHGTLVIKINGVEIRHSTKEFWYKVNGRWILHHSEIH
*A* 1.21

Further cases:
*Q* Returns the measured protease stability score for the input sequence. Input: DDDERALEEAIRIIKEVFKTGDERLHEELFDPNYLLIINGVFYHGREVMRNFHRHWRIRHVEFRRTRVINGRIEMDVHIITDINGQEIRHDSHIYAHKIDGRWIFRSVEHH
*A* 1.63
